- experimental target: CDK8/Cyclin C (Homo sapiens) (UniProt P49336+P24863)
- protocol details: Inhibition of Alexa647 tracer binding to full length recombinant human His-tagged CDK8/Cyclin C expressed in baculovirus expression system at 5 uM preincubated for 20 mins followed by tracer addition measured after 60 mins by TR-FRET based Lanthascreen assay relative to control
value type: inhibition (%)
Numbers only here, please. The scale is %.

Check out these entries, answers already filled in.
> print(dat)
                                   compound                       experimental.target  value.type  endpoint.result
1           NNc1cc(N2CCN(c3ccccc3F)CC2)ncn1  CDK8/Cyclin C (Homo sapiens) (UniProt P49336+P24863)  inhibition                3
2  O=C(Nc1ccc(Cl)cc1)N1CCCC(c2cccc(C(=O)N3CCC4(CC3)OCCO4)c2)C1 (centres undefined)  CDK8/Cyclin C (Homo sapiens) (UniProt P49336+P24863)  inhibition               -3
3  O=C(Nc1ccc2c(c1)OCCO2)c1cccc(Nc2cc(-c3ccc(F)cc3)ncn2)c1  CDK8/Cyclin C (Homo sapiens) (UniProt P49336+P24863)  inhibition                4
4  CCCc1c(C(=O)Nc2ccc(NC(C)=O)cc2)nnn1-c1ccc2noc(-c3ccccc3)c2c1  CDK8/Cyclin C (Homo sapiens) (UniProt P49336+P24863)  inhibition               27
5  CCn1c(=O)c(=O)n(CC(=O)NCc2ccccc2)c2ccccc21  CDK8/Cyclin C (Homo sapiens) (UniProt P49336+P24863)  inhibition               -2
6  Fc1ccc(-c2noc3ncnc(N4CCN(c5ccccn5)CC4)c23)cc1  CDK8/Cyclin C (Homo sapiens) (UniProt P49336+P24863)  inhibition               19
7  O=C(Nc1c(C(=O)c2ccccc2)oc2ccccc12)c1cc(-c2ccc3c(c2)OCCO3)on1  CDK8/Cyclin C (Homo sapiens) (UniProt P49336+P24863)  inhibition               18
8  O=C(Cc1ccc(NC(=O)N2CCSc3ncccc32)cc1)NCc1cccc(Cl)c1  CDK8/Cyclin C (Homo sapiens) (UniProt P49336+P24863)  inhibition               14

## Task Would you kindly share the measured inhibition for `O=C(OCc1cc(=O)n2nc(C3CC3)sc2n1)c1ccc(NC(=O)c2cccc3ccccc23)cc1` ?
## Result 0

## Task Would you kindly share the measured inhibition for `COc1ccc(-n2nc(C(=O)NCC(=O)N3CCC(Cc4ccccc4)CC3)c3ccccc3c2=O)cc1` ?
## Result 0
